# Assay Name: Elimination half life in human
# Assay type: ADME
# Conditions Used: read-out: beta t1/2 (converted)
Endpoint: half-life (h)
The answer is to be given in h; state only the numeric part.

(Q) For N#C[C@@]1(c2ccc3c(N)ncnn23)O[C@H](COP(=O)(O)OP(=O)(O)OP(=O)(O)O)[C@@H](O)[C@H]1O [RDV-TP] , what is its reported half-life?
(A) 26.6

* * *

# Assay Name: Inhibition of Influenza A virus RNA-dependent RNA polymerase
Endpoint: IC50
Write the quantity with the unit trailing the number.

(Q) Can you share its IC50? I mean this compound: "NC(=O)c1nc(F)cn([C@@H]2O[C@H](COP(=O)(O)OP(=O)(O)OP(=O)(O)O)[C@@H](O)[C@H]2O)c1=O"
(A) 341 nM

* * *

# Assay Name: clinical
# Conditions Used: human, in vivo, iv, 5 mg/kg
# Description: Elimination half life in human at 5 mg/kg, iv
Endpoint: half-life (min)
// return numeric value only (unit: min, not printed)

(Q) Quick check: half-life of "CCC(CC)COC(=O)[C@H](C)N[P@](=O)(OC[C@H]1O[C@@](C#N)(c2ccc3c(N)ncnn23)[C@H](O)[C@@H]1O)Oc1ccccc1" ?
(A) 28.8

* * *

# Test system: rhinovirus B14
# Assay Name: Antiviral activity against human Rhinovirus 14 infected in H1-HeLa cells incubated for 3 days by crystal-violet staining based analysis
# Format: functional, organism-based
# Conditions Used: Rhinovirus B, 72 h
Endpoint: EC50
Give the figure together with its unit, number first.

(Q) Recorded EC50 of "COc1ccc(OCCCCCCn2ccnc2)c(Cl)c1" , please.
(A) 10 µM

* * *

# Tested on: Human alphaherpesvirus 1
# Assay Name: Antiviral activity against HSV 1 infected in African green monkey Vero cells assessed as reduction in plaque formation incubated for 36 hrs by crystal violet staining based assay
# Format: functional, organism-based
# Conditions Used: Human alphaherpesvirus 1, Vero
Endpoint: pIC50
Quick note: pIC50 values are minus log10 of concentrations in mol/L.

(Q) I would be grateful if you could share the reported pIC50 for "C=CCNC1=C2C[C@@H](C)C[C@H](OC)[C@H](O)[C@@H](C)/C=C(\C)[C@H](OC(N)=O)[C@@H](OC)/C=C/C=C(\C)C(=O)NC(=CC1=O)C2=O" .
(A) 8.11
